Tested on: Danio rerio Tg(wt1b:EGFP) embryo, pronephros
Assay: glomerular separation, fold change vs DMSO control; higher = glomeruli further apart (abnormal)
Settings: 25 µM; exposure: 24-48 hpf
Where a name gives a salt, the structure may show the parent alone.
For each entry below, report its glomerular separation value.
Answers are plain numbers.

The cases that follow already have their glomerular separation on record.
{"Molecule": "CCOc1ccc2c(c1)C(C)=CC(C)(C)N2 [Ethoxyquin]", "glomerular separation": 0.864}
{"Molecule": "Cc1cc(NS(=O)(=O)c2ccc(N)cc2)no1 [Sulfamethoxazole]", "glomerular separation": 0.872}
{"Molecule": "OC(CCN1CCCCC1)(c1ccccc1)C1CCCCC1 (configuration not stated) [Trihexyphenidyl-D,L Hydrochloride]", "glomerular separation": 0.867}
{"Molecule": "CC(=O)[C@H]1CC[C@H]2[C@@H]3CCC4=CC(=O)CC[C@]4(C)[C@H]3CC[C@]12C [Progesterone]", "glomerular separation": 3.48}
{"Molecule": "C[C@]12CCC(=O)C=C1CC[C@@H]1[C@@H]2[C@@H](O)C[C@@]2(C)[C@H]1CC[C@]2(O)C(=O)CO [Hydrocortisone base]", "glomerular separation": 1.25}

Provide the reported glomerular separation of each entry below, same order.
1. COc1ccc2c(c1)c(CC(=O)OCC(=O)O)c(C)n2C(=O)c1ccc(Cl)cc1 [Acemetacin]
2. C[C@@]1(O)CCOC(=O)C1 [Mevalonic-D, L acid lactone]

[1.28, 0.897]

Provide the reported glomerular separation of each entry below, same order.
1. Clc1ccc2c(c1)CCc1cccnc1C2=C1CCNCC1 [Desloratadine]
2. CC(C)NCC(O)c1ccc2ccccc2c1 (configuration not stated) [Pronethalol hydrochloride]

1. 0.811
2. 0.915

Provide the reported glomerular separation of each entry below, same order.
1. CC1(C)OC(=O)NC1=O [Dimethadione]
2. Nc1ncn(C2OC(CO)C(O)C2O)c(=O)n1 (configuration not stated) [Azacytidine-5]
3. O=C1CC[C@@H](C(=O)N2CSC[C@H]2C(=O)O)N1 [Pidotimod]
4. C#C[C@]1(O)CC[C@H]2[C@@H]3CCC4=Cc5oncc5C[C@]4(C)[C@H]3CC[C@@]21C [Danazol]
5. N=C(N)NS(=O)(=O)c1ccc(N)cc1 [Sulfaguanidine]
6. Cn1c(=O)c2c(ncn2CC(=O)O)n(C)c1=O [Acefylline]

[1.27, 0.981, 1.03, 3.7, 1.04, 1.12]

Provide the reported glomerular separation of each entry below, same order.
1. O=C(c1ccccc1)c1ccc2n1CCC2C(=O)O (configuration not stated) [Ketorolac tromethamine]
2. COc1ccccc1N1CCN(CCCCNC(=O)c2ccc3ccccc3c2)CC1
3. O=C1[C@H]2CCCC[C@H]2C(=O)N1CCCCN1CCN(c2nsc3ccccc23)CC1 [Perospirone]
4. CCCCC1=NC2(CCCC2)C(=O)N1Cc1ccc(-c2ccccc2-c2nnn[nH]2)cc1 [Irbesartan]

1: 1; 2: 0.691; 3: 1.25; 4: 3.04

* * *

For each entry below, report its pronephric angle neck segment value.
System: Danio rerio Tg(wt1b:EGFP) embryo, pronephros
Experiment: pronephric angle neck segment to proximal convoluted tubule (mean of left and right), fold change vs DMSO control; higher = larger pronephric angle
Details: 25 µM; exposure: 24-48 hpf
Structures can show the parent of a compound that is named as a salt.
Answers are plain numbers.

The cases that follow already have their pronephric angle neck segment on record.
{"Compound": "CO[C@@H]1[C@@H](OC(N)=O)[C@@H](O)[C@H](Oc2ccc3c(O)c(NC(=O)c4ccc(O)c(CC=C(C)C)c4)c(=O)oc3c2C)OC1(C)C [Novobiocin sodium salt]", "pronephric angle neck segment": 0.978}
{"Compound": "CN(C)c1nc(N(C)C)nc(N(C)C)n1", "pronephric angle neck segment": 1.06}
{"Compound": "Cc1cc(-c2ccccc2)nnc1NCCN1CCOCC1 [Minaprine dihydrochloride]", "pronephric angle neck segment": 0.996}
{"Compound": "NS(=O)(=O)Cc1noc2ccccc12 [Zonisamide]", "pronephric angle neck segment": 1.02}

Provide the reported pronephric angle neck segment of each entry below, same order.
1. COc1ccc(C2CNC(=O)C2)cc1OC1CCCC1 (centres undefined)
2. CC(=O)[C@H]1CC[C@H]2[C@@H]3CC=C4C[C@@H](O)CC[C@]4(C)[C@H]3CC[C@]12C
3. CC(=O)O[C@H]1C(=O)[C@@]2(C)[C@H]([C@H](OC(=O)c3ccccc3)[C@]3(O)C[C@H](OC(=O)[C@H](O)[C@@H](NC(=O)c4ccccc4)c4ccccc4)C(C)=C1C3(C)C)[C@]1(OC(C)=O)CO[C@@H]1C[C@@H]2O
4. NNc1nncc2ccccc12 [Hydralazine hydrochloride]

1. 1.08
2. 0.999
3. 0.964
4. 1.02

Provide the reported pronephric angle neck segment of each entry below, same order.
1. O=c1[nH]cnc2c1ncn2[C@H]1CC[C@@H](CO)O1
2. CCCNC(C)C(=O)Nc1ccccc1C (centres undefined) [Prilocaine hydrochloride]
3. Nc1cc(-c2ccncc2)c[nH]c1=O
4. CC(C)NC[C@H](O)COc1ccc(CC(N)=O)cc1 [(S)-(-)-Atenolol]
5. CC(C)(C)NC[C@H](O)COc1nsnc1N1CCOCC1 [Timolol maleate salt]
6. COc1ccccc1OCC(O)CN1CCN(CC(=O)Nc2c(C)cccc2C)CC1 (centres undefined)
7. C[C@]12CC[C@H]3C(=CCc4cc(O)ccc43)[C@@H]1CCC2=O
8. NCCCCCC(=O)O

1. 0.972
2. 1.02
3. 0.969
4. 0.959
5. 0.999
6. 1.01
7. 1.17
8. 1.02

Provide the reported pronephric angle neck segment of each entry below, same order.
1. NNC(=O)c1ccncc1
2. Cc1c(C)c2c(c(C)c1O)CCC(C)(C(=O)O)O2 (centres undefined)
3. CCCCN1CCCCC1C(=O)Nc1c(C)cccc1C (centres undefined) [Bupivacaine hydrochloride]

1: 0.978; 2: 1; 3: 1.01

Cited source for all entries: the supplement of paper PMC7366291
